Measured values drawn from ChEMBL document CHEMBL1139577 for this set.

Assay System: Interstitial collagenase (Homo sapiens)
Sequence (P03956 whole entry): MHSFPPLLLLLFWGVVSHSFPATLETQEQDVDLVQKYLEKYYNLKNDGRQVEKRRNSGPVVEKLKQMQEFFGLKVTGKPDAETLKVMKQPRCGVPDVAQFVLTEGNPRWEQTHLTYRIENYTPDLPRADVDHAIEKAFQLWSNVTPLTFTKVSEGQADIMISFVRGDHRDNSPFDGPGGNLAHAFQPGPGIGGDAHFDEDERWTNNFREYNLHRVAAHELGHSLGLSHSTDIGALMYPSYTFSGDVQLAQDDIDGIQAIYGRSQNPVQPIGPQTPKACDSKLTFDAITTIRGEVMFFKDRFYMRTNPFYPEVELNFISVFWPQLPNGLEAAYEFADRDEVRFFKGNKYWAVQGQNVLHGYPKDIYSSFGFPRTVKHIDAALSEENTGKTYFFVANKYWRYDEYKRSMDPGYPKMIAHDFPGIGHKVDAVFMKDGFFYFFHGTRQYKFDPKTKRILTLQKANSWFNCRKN
Measurement Description: Inhibitory concentration against MMP-1

| Smiles Str | IC50 |
| --- | --- |
| C[C@@]1(O)CCCN(S(=O)(=O)c2ccc(OCc3ccccc3C#N)cc2)[C@H]1C(=O)NO | 2700 nM |
| C[C@@]1(O)CCCN(S(=O)(=O)c2ccc(OCc3ccncc3)cc2)[C@H]1C(=O)NO | 190 nM |
| C[C@@]1(O)CCCN(S(=O)(=O)c2ccc(OCc3cccc4cccnc34)cc2)[C@H]1C(=O)NO | 120 nM |
| COc1ccccc1COc1ccc(S(=O)(=O)N2CCC[C@@](C)(O)[C@@H]2C(=O)NO)cc1 | 2600 nM |
